Test system: MDA-MB-435
Method Summary: NCI tumour cell line growth inhibition, 48 h
The source made the active and inactive calls. No stated cut-off is given here; in the data, active = GI50 up to about 1.1 µM and inactive = higher.
Kindly supply the reported GI50 values for the records listed here.

Enquiry: Consider the molecule Cc1ccc(S(=O)(=O)N2CCCC2C(=O)O[C@H]2CC[C@H]3CC=C[C@H]32)cc1 (stereo not given in full) . State its measured GI50.
Return: 80.2 µM (inactive)

Enquiry: Consider the molecule c1ccc2c(c1)SC1=Nc3sc4ccccc4[n+]3CN12 . State its measured GI50.
Return: 19.7 µM (inactive)

Enquiry: Consider the molecule OC1CCCN(C2(c3cccs3)CCCCC2)C1 (stereo not given) . State its measured GI50.
Return: > 100 µM (inactive)

Enquiry: Consider the molecule Cc1ccc(-c2[nH]c(=O)n(C3OC(CO)C(O)C(O)C3O)c(=O)c2C#N)cc1 (stereo not given) . State its measured GI50.
Return: > 100 µM (inactive)

Enquiry: Consider the molecule O=c1oc2ccccc2c(-c2ccc(O)cc2)c1Oc1ccccc1 . State its measured GI50.
Return: 22.1 µM (inactive)

Enquiry: Consider the molecule CCOC(=O)C1C(=O)CC1(C)C (stereo not given) . State its measured GI50.
Return: > 10 µM (inactive)

Enquiry: Consider the molecule COc1ccc(C2CC(c3ccccc3)=Nc3c(-c4ccccc4)nnn32)cc1 (stereo not given) . State its measured GI50.
Return: 77.8 µM (inactive)

Enquiry: Consider the molecule COC(=O)Nc1nc2cc(S(=O)(=O)Nc3ccccn3)ccc2[nH]1 . State its measured GI50.
Return: 14.1 µM (inactive)

Enquiry: Consider the molecule CC1(C)CC[C@]2(C(=O)O)CC[C@]3(C)C(=CC[C@@H]4[C@@]5(C)CC[C@H](OC6OC(C(=O)O)C(O)C(O)C6O)C(C)(C)[C@@H]5CC[C@]43C)[C@@H]2C1 (stereo not given in full) . State its measured GI50.
Return: 19.2 µM (inactive)

Enquiry: Consider the molecule Clc1cc2nnn(C3CCCCO3)c2cc1Cl (stereo not given) . State its measured GI50.
Return: > 100 µM (inactive)

* * *

Kindly supply the reported GI50 values for the records listed here.
Tested on: TK-10
Method Summary: NCI tumour cell line growth inhibition, 48 h
Active and inactive are the calls of the source. Rule as the data show it: active = GI50 up to about 1.1 µM and inactive = higher.

Enquiry: Consider the compound O=c1oc2ccc(-n3c(=O)c4ccccc4c4ccccc4c3=O)cc2c2ccccc12 . State its measured GI50.
Return: > 100 µM (inactive)

Enquiry: Consider the compound CCc1ncc(C(C)(O)c2ccccc2)n1Cc1ccccc1 (configuration not stated) . State its measured GI50.
Return: 33.5 µM (inactive)

Enquiry: Consider the compound C(=N\c1nc2cc3sc(/N=C/c4cccs4)nc3cc2s1)/c1cccs1 . State its measured GI50.
Return: 26.2 µM (inactive)

Enquiry: Consider the compound C#CCN(Cc1ccc2nc(-c3ccccc3)c(Cl)nc2c1)c1ccc(F)cc1 . State its measured GI50.
Return: > 100 µM (inactive)

Enquiry: Consider the compound Clc1cc2nnn(C3CCCCO3)c2cc1Cl (configuration not stated) . State its measured GI50.
Return: > 100 µM (inactive)

Enquiry: Consider the compound Cn1/c(=N\c2ccc(Cl)cc2)sc2ccccc21 . State its measured GI50.
Return: 43 µM (inactive)

Enquiry: Consider the compound CCOC(=O)c1[nH]c(Br)c(-c2ccc(Br)cc2)c1Br . State its measured GI50.
Return: 3.23 µM (inactive)

Enquiry: Consider the compound C=C1C(=O)OC2C1CC(O)/C(C)=C\CCC1(C)OC21 (configuration not stated) . State its measured GI50.
Return: 39.3 µM (inactive)

Enquiry: Consider the compound COc1nc(N=P(c2ccccc2)(c2ccccc2)c2ccccc2)cc(=O)n1C . State its measured GI50.
Return: > 100 µM (inactive)

Enquiry: Consider the compound O=C(N/N=C/c1ccccc1)c1cccc2nc3ccccc3nc12 . State its measured GI50.
Return: > 100 µM (inactive)

Enquiry: Consider the compound CC1(C)C2CCC(O)(C2)C1N (configuration not stated) . State its measured GI50.
Return: > 100 µM (inactive)

Enquiry: Consider the compound ClC/C=C/COC1CCCCO1 (configuration not stated) . State its measured GI50.
Return: > 100 µM (inactive)

* * *

Tested on: NCI-H23
Method Summary: NCI tumour cell line growth inhibition, 48 h
The source made the active and inactive calls. Rule as the data show it: active = GI50 up to about 1.1 µM and inactive = higher.
Write down the outcome that applies. Available outcomes: active, inactive

Enquiry: # lookup: test call for CCCCC1Nc2ccccc2-c2ccnc(Cl)c21 (centres undefined)
Return: inactive

Enquiry: # lookup: test call for CC#CCCCC1(C)CCCNC1=S (centres undefined)
Return: inactive

Enquiry: # lookup: test call for CCN(CC)CCO[Si](OCCN(CC)CC)(OCCN(CC)CC)OCCN(CC)CC
Return: inactive

Enquiry: # lookup: test call for O=C(CBr)NCCc1c[nH]c2ccccc12
Return: inactive

Enquiry: # lookup: test call for C[C@@H]1C[C@@H]([C@H](O)CC2CC(=O)NC(=O)C2)C(=O)[C@@H](C)C1 [CYCLOHEXIMIDE]
Return: active

Enquiry: # lookup: test call for O=C1C2=Cc3ccccc3OC2(O)Oc2cc3ccccc3cc21 (centres undefined)
Return: inactive

Enquiry: # lookup: test call for Nc1ccc(Oc2ccc(C3(c4ccc(Oc5ccc(N)c(O)c5)cc4)C4CC5C6CC7CC5C3C(C7)C6C4)cc2)cc1O
Return: inactive

Enquiry: # lookup: test call for N#CCN1C(=O)c2cc([N+](=O)[O-])cc3cc([N+](=O)[O-])cc(c23)C1=O
Return: inactive

Enquiry: # lookup: test call for CC(C)SC1SCC2C(=O)N(C)C3(CC3C)C(=O)OCC(NC(=O)c3nc4ccccc4cc3O)C(=O)NC(C)C(=O)N(C)C1C(=O)N(C)C1(CC1C)C(=O)OCC(NC(=O)c1nc3ccccc3cc1O)C(=O)NC(C)C(=O)N2C (centres undefined)
Return: active

* * *

Kindly supply the reported GI50 values for the records listed here.
Tested on: U-251
Method Summary: NCI tumour cell line growth inhibition, 48 h
Calls of active or inactive are those of the source. Rule as the data show it: active = GI50 up to about 1.1 µM and inactive = higher.

Enquiry: Quote U-251 GI50 for entry CC(C)(Oc1ccc(Cl)cc1)C(=O)N(C(=O)N1CCC(c2ccccc2)CC1)c1ccccc1 .
Return: > 25.2 µM (inactive)

Enquiry: Quote U-251 GI50 for entry Oc1cc(Br)cc2cccnc12 .
Return: 1.58 µM (inactive)

Enquiry: Quote U-251 GI50 for entry Cc1[nH]n(-c2ccccc2)c(=O)c1C(N(CCc1ccccc1)C1=NCC(C)S1)(C(F)(F)F)C(F)(F)F (stereo not given) .
Return: 7.41 µM (inactive)

Enquiry: Quote U-251 GI50 for entry ClC/C=C/COC1CCCCO1 (stereo not given) .
Return: 65.9 µM (inactive)

Enquiry: Quote U-251 GI50 for entry CCC(=O)C(C)C1=Nc2nnc(CCCCCCCc3nnc4n3C(=O)C(C(C)C(=O)CC)=N4)n2C1=O (stereo not given) .
Return: > 100 µM (inactive)

* * *

Test system: RPMI-8226
Method Summary: NCI tumour cell line growth inhibition, 48 h
Calls of active or inactive are those of the source. No stated cut-off is given here; in the data, active = GI50 up to about 1.1 µM and inactive = higher.
Write down the outcome that applies. Available outcomes: y for active, n for inactive

Enquiry: # lookup: test call for Cc1c2ccnc(O)c2cc2c(=O)c3cnccc3[nH]c12
Return: n

Enquiry: # lookup: test call for O=Cc1coc2ccccc2c1=O
Return: n

Enquiry: # lookup: test call for CCCC[Si](CCCC)(CCCC)O[C@@H](/C=C/C(=O)OCC)[C@H](Cc1ccccc1)O[Si](CCCC)(CCCC)CCCC
Return: n

Enquiry: # lookup: test call for O=C1OC(c2ccccc2)=N/C1=C/NC(Cc1ccccc1)C(=O)O (stereo not drawn)
Return: n

Enquiry: # lookup: test call for CCOC(=O)CCC1(C(=O)OCC)CCCCC1=O (stereo not drawn)
Return: n

Enquiry: # lookup: test call for Clc1ccc(Oc2ccc(/N=C/c3ccc(Cl)cc3Cl)cc2Cl)cc1
Return: n

Enquiry: # lookup: test call for N/N=C(\C(=O)Nc1ccc([N+](=O)[O-])cc1)C(C1=Nc2cc([N+](=O)[O-])ccc2NC1)[N+](=O)[O-] (stereo not drawn)
Return: n

Enquiry: # lookup: test call for O=C1C=C(OCCCl)C(=O)c2c(O)ccc(O)c21
Return: n

Enquiry: # lookup: test call for CCCNC1=Nc2ccccc2NC(C)C1 (stereo not drawn)
Return: n

Enquiry: # lookup: test call for O=C(O/N=c1/ccc(=O)/c(=N\OC(=O)c2ccccc2)c1=O)c1ccccc1
Return: n

Enquiry: # lookup: test call for CCC1c2[nH]c3ccccc3c2C[C@H]2C(=O)N3CCC[C@H]3C(=O)N12 (stereo partly drawn)
Return: n

Enquiry: # lookup: test call for CC(C)C1=C(O)C(=O)C2=C(C1=O)C(OC=O)C(O)C1C(C)(C)CCCC21C (stereo not drawn)
Return: n

Enquiry: # lookup: test call for COc1cccc(C2c3cc4c(cc3OC(N3CCOCC3)C2C)OCO4)c1 (stereo not drawn)
Return: n

Enquiry: # lookup: test call for CCNC(=O)COc1ccc(Cl)c(C)c1
Return: n

Enquiry: # lookup: test call for COC(=O)C1(Cc2ccc3c(c2)CCC3)Cc2ccc3c(c2C1O)CCC3 (stereo not drawn)
Return: n

Enquiry: # lookup: test call for COc1nc(N=P(c2ccccc2)(c2ccccc2)c2ccccc2)cc(=O)n1C
Return: n

Enquiry: # lookup: test call for O=C1O[C@H](c2ccccc2)[C@@H]2CC3(CCN12)OCCO3
Return: n

Enquiry: # lookup: test call for COc1ccc2[nH]c3c(c2c1)CC(=O)N1CCC[C@H](C1)CC31OCCCO1
Return: n

Enquiry: # lookup: test call for CCc1ncc(C(C)(O)c2ccccc2)n1Cc1ccccc1 (stereo not drawn)
Return: n

Enquiry: # lookup: test call for O=C(CBr)NCCc1c[nH]c2ccccc12
Return: n

Enquiry: # lookup: test call for N=C(N)NS(=O)(=O)c1ccc(NNc2c3ccccc3nc3ccccc23)cc1
Return: n

Enquiry: # lookup: test call for COC(=O)N1C[C@@]2(C=CC3(CC2)OCCO3)c2ccccc21
Return: n

Enquiry: # lookup: test call for O=c1oc2ccc([N+](=O)[O-])cc2c(Nc2ccc3c(c2)S(=O)(=O)c2ccccc2O3)c1[N+](=O)[O-]
Return: n

Enquiry: # lookup: test call for O=c1cccc(Cl)[nH]1
Return: n

Enquiry: # lookup: test call for C[C@@H]1C[C@@H]([C@H](O)CC2CC(=O)NC(=O)C2)C(=O)[C@@H](C)C1 [CYCLOHEXIMIDE]
Return: y

Enquiry: # lookup: test call for CC(C)(C)OC(=O)N/C=C1\C(=O)Oc2ccccc2C1=O
Return: n

Enquiry: # lookup: test call for CC(C)C(=O)Cc1ccc2ccccc2n1
Return: y

Enquiry: # lookup: test call for CCC(=O)C(C)C1=Nc2nnc(CCCCCCCc3nnc4n3C(=O)C(C(C)C(=O)CC)=N4)n2C1=O (stereo not drawn)
Return: n

Enquiry: # lookup: test call for C=C1CC(CNc2cc(Cl)nc(N)n2)C1
Return: n

Enquiry: # lookup: test call for CC1(/C=C/CCSc2ccccc2)CC(=O)C2CC1C2(C)C (stereo not drawn)
Return: n

Enquiry: # lookup: test call for Cc1nn(C(=O)c2ccc(Cl)cc2)c2c1C(c1ccccc1O)SC(=N)N2 (stereo not drawn)
Return: n

Enquiry: # lookup: test call for Cc1cc2c(cc1C)[n+]([O-])c(C(=O)C/C(=N/NC(=S)NN)C(=O)Nc1cccc(C(F)(F)F)c1)c[n+]2[O-]
Return: n

Enquiry: # lookup: test call for O=C(O)c1c([N+](=O)[O-])cc(C(F)(F)F)cc1[N+](=O)[O-]
Return: n

Enquiry: # lookup: test call for CCCCOC(=O)CNC(=O)OC/C=C/C#CC#C/C=C/COC(=O)NCC(=O)OCCCC
Return: n

Enquiry: # lookup: test call for S=C(NC/C(Br)=C/Br)Nc1cccc2ccccc12
Return: n

Enquiry: # lookup: test call for c1ccc2c(CNCCCCCCCCCCCCNCc3cccc4ccccc34)cccc2c1
Return: y

Enquiry: # lookup: test call for Cc1nn(-c2ccccc2)c2c1N=C(C(=O)O)CC(c1ccccc1)=N2
Return: n

Enquiry: # lookup: test call for O=C(Nc1ccccc1)Oc1ccccc1C1CCCCC1
Return: n

Enquiry: # lookup: test call for Cc1ccc(C(=O)N/N=C(\N=N\c2ccccc2Cl)c2ccc(N(C)C)cc2)cc1
Return: n

Enquiry: # lookup: test call for Cc1c(OC(C)C(=O)O)ccc2c(-c3ccccc3)cc(=O)oc12 (stereo not drawn)
Return: n

Enquiry: # lookup: test call for Nc1ccc(Oc2ccc(C3(c4ccc(Oc5ccc(N)c(O)c5)cc4)C4CC5C6CC7CC5C3C(C7)C6C4)cc2)cc1O
Return: n

Enquiry: # lookup: test call for COc1cc(C(=O)Nc2nnc(S(N)(=O)=O)s2)cc(OC)c1OC
Return: n

Enquiry: # lookup: test call for CC1OC(OC2C(Oc3cc(O)c4c(c3)O[C@H](c3ccc(O)cc3)CC4=O)OC(CO)C(O)C2O)C(O)C(O)C1O (stereo partly drawn)
Return: n

Provenance of the data: ChEMBL document CHEMBL1201862
